System: level of sorbitol in the crystallins
Assay: In vivo study: reduction in the accumulation of sorbitol in streptozotocin-diabetic rats
Parameters: species or system male Wistar rats
Conditions: Rattus norvegicus, oral, 4, 30 and 52 h after streptozotocin (60 mg/kg i.v.), 50% reduction, confidence interval in parentheses
METRIC: ED50 (mg/kg)
Answers are plain numbers, in mg/kg.

// solved cases for ED50 follow
MOLECULE SMILES	UNITS LABEL	OBSERVED RESULT
O=C(O)Cc1nn(C/C=C/c2c(F)ccc(F)c2F)c(=O)c2ccccc12	mg/kg	4.7
O=C(O)Cc1nn(C/C=C/c2cccc(C(F)(F)F)c2F)c(=O)c2ccccc12	mg/kg	4.8
O=C(O)Cc1nn(C/C=C/c2c(F)ccc(Br)c2F)c(=O)c2ccccc12	mg/kg	6.1

# return ED50 for each item in the list
1. O=C(O)Cc1nn(C/C(F)=C/c2cccc(C(F)(F)F)c2)c(=O)c2ccccc12
2. O=C(O)Cc1nn(C/C=C/c2c(F)ccc(C(F)(F)F)c2F)c(=O)c2ccccc12
3. O=C(O)Cc1nn(C/C=C/c2c(F)c(F)cc(F)c2F)c(=O)c2ccccc12

1: 8.2; 2: 4.4; 3: 5.8
